Data origin: ChEMBL document CHEMBL1130553

TARGET_UNDER_TEST: Tyrosine-protein kinase Fyn (Homo sapiens, UniProt P06241)
Sequence (P06241 whole entry, the tested form may be a part): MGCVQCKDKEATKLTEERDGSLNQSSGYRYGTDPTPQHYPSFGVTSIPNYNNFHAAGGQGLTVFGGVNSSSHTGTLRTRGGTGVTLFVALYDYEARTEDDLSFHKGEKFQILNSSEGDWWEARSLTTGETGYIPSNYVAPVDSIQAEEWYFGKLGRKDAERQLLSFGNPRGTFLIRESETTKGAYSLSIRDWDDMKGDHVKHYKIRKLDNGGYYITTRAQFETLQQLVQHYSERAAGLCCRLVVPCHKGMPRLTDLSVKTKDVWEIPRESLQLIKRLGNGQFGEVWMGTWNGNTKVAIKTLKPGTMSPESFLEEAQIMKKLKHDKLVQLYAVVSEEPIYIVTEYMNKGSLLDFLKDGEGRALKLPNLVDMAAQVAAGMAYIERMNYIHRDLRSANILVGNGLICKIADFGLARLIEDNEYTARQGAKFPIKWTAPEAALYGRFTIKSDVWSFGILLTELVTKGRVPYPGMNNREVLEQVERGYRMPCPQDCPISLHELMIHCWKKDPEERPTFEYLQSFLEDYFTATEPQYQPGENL
MEASUREMENT_DESCRIPTION: Inhibition of peptide EPQ (pY) EEIPI binding to Fyn protein kinase SH2 domain at 100 uM (no inhibition)
pIC50: −log10 of the molar value.
ATTRIBUTE_MEASURED: pIC50

>>> result("CCCN(CCC)C1Cc2ccc(O)cc2C1 (stereo unspecified)")
"< 4.00"

I need pIC50 for every entry listed below, if you could help.
1. NCCc1ccc(O)c(O)c1
2. CCCN(CCC)C1Cc2cc(OC)c(OC)cc2C1 [PNU-99194A]
3. CCCN(CCC)C1Cc2cc(O)c(OC)cc2C1 (stereo unspecified)
4. CCCN(CCC)C1Cc2cc(O)cc(O)c2C1 (stereo unspecified)
5. CCCN(CCC)CCc1ccc(O)c(O)c1

[reply]
1: < 4.00; 2: < 4.00; 3: < 4.00; 4: < 4.00; 5: < 4.00
